- Tested on: biotinyl-Leu-oxazolone
- assay: self-aminoacylation, catalytic enhancement (BLO) (fold over background); higher = more active; k-Seq, kA / k0A0; sequences stand for … in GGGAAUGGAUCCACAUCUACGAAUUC…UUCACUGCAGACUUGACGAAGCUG
This sample holds only a part of the variants without activity.
metric: self-aminoacylation
Give a plain numeric answer without units written out.

# input Return self-aminoacylation (reported value) for this sequence: CUCCUUCAAACAUUCGGUCUG [Fam1A.1 aminoacylation ribozyme variant]
# output 1.05

# input Given AUUACCCUGGUAAUUGAGUGA [Fam2.1 aminoacylation ribozyme variant] , respond with its self-aminoacylation.
# output 17.1

# input Specify self-aminoacylation for CUACUGCAAACAACCGGUCUG [Fam1A.1 aminoacylation ribozyme variant] and stop.
# output 0.953

# input Give reported self-aminoacylation value for AUUACCCUGUUCAUCGUGUGA [Fam2.1 aminoacylation ribozyme variant]
# output 6.24

# input Hello, please tell me recorded self-aminoacylation for this one: AUUCACCUUGGUCAUCUGGUG [Fam2.2 aminoacylation ribozyme variant]
# output 3.3

# input Provide one value: measured self-aminoacylation of CUACCUCAAAAAAUCGGUCUG [Fam1A.1 aminoacylation ribozyme variant]
# output 1.49

# input Answer with the recorded self-aminoacylation of CCACACUUCAAGCAAUUGAUC [Fam1B.1 aminoacylation ribozyme variant] only.
# output 0.536

# input Output measured self-aminoacylation for this item: AAGUUUGCUAAUAGUCGUAAC [Fam3.1 aminoacylation ribozyme variant]
# output 0.68

# input Name the recorded self-aminoacylation of the sequence listed here: AAGGCUGCUAAUAGUCGCAAG [Fam3.1 aminoacylation ribozyme variant]
# output 1.64

# input Return value of self-aminoacylation for input AUUGACCUAGGUCGUCGGGUG [Fam2.2 aminoacylation ribozyme variant] , no commentary.
# output 1.6

# input Supply measured self-aminoacylation of CCACAAUUCAAGCAAUCUGUC [Fam1B.1 aminoacylation ribozyme variant] in your reply.
# output 0.558

# input Quote self-aminoacylation reported for AAGCUUGCUAAUGGUCGCAAG [Fam3.1 aminoacylation ribozyme variant] please.
# output 1.83

# input Specify reported self-aminoacylation for the sequence shown: GCACACUUCAAGCAAUCCGUC [Fam1B.1 aminoacylation ribozyme variant]
# output 1.71

# input Determine from records and report self-aminoacylation for CUACUUCCAACAAUCCGUCUG [Fam1A.1 aminoacylation ribozyme variant]
# output 0.999

# input Read off the recorded self-aminoacylation for UCACACUCCAAGCAAUCGGUC [Fam1B.1 aminoacylation ribozyme variant]
# output 0.792

# input Input CUACUUCAAACAAUCGGGCUU [Fam1A.1 aminoacylation ribozyme variant] , output reported self-aminoacylation.
# output 0.955

# input For the sequence AUUCCCCUAGGUCAUCGGGUC [Fam2.2 aminoacylation ribozyme variant] , give its reported self-aminoacylation.
# output 5.52

# input In one line, give reported self-aminoacylation of the entry CUACUUCAGACAAUCGGUUUG [Fam1A.1 aminoacylation ribozyme variant] .
# output 0.596
